assay: Ratio of drug level in liver to plasma in rat at 150 umol/kg, po measured within 10 mins by LC-MS/MS analysis; format: ADME, organism-based; conditions: liver and plasma
parameter: Kp at 10 min

So, Cc1c(O)c(O)cc[n+]1[C@@H](CO)Cc1ccccc1.[Cl-] ? Its Kp at 10 min was 3.3 to 8.8

###

assay: Ratio of drug level in intestine to plasma in rat at 150 umol/kg, po measured within 10 mins by LC-MS/MS analysis; assay type: ADME, organism-based; settings: intestine and plasma
parameter: Kp at 10 min

So, Cc1c(O)c(O)cc[n+]1[C@@H](CO)Cc1ccccc1.[Cl-] ? Its Kp at 10 min was 3.3 to 8.8

###

assay: Lipophilicity coefficient, logP of the compound in Tris buffer at pH 7.0 (100 mM/n-octanol); assay type: physicochemical
parameter: logD
Answers are plain numbers.

So, Cc1c(O)c(O)cc[n+]1[C@@H](CO)Cc1ccccc1.[Cl-] ? Its logD was 0.62

###

assay: Ratio of drug level in adrenal gland to plasma in rat at 150 umol/kg, po measured within 10 mins by LC-MS/MS analysis; assay type: ADME, organism-based; details: adrenal gland and plasma
parameter: Kp at 10 min

So, Cc1c(O)c(O)cc[n+]1[C@@H](CO)Cc1ccccc1.[Cl-] ? Its Kp at 10 min was 3.3 to 8.8

###

molecular target: Cytochrome P450 2C9 (Homo sapiens)
Sequence (P11712 whole entry): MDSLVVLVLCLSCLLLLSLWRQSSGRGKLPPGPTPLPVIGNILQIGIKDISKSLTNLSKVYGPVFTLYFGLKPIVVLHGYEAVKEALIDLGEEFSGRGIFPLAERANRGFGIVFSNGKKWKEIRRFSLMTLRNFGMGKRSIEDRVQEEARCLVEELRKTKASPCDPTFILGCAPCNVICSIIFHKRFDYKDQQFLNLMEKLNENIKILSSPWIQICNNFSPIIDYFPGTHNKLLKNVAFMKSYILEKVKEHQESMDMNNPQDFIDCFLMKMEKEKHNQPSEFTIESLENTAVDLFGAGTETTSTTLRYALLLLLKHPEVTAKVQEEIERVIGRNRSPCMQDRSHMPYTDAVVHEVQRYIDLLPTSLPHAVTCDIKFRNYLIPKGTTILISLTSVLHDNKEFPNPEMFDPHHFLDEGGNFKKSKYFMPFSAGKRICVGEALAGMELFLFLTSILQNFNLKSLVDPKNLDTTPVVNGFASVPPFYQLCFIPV
parameter: IC50

So, Cc1c(O)c(O)cc[n+]1[C@@H](CO)Cc1ccccc1.[Cl-] ? Its IC50 was > 200 µM

###

experiment: Acid dissociation constant, pKa2 of the compound over pH 1.8 to 11.0 by spectrophotometric titration method; assay type: physicochemical
parameter: pKa
Give bare numbers.

So, Cc1c(O)c(O)cc[n+]1[C@@H](CO)Cc1ccccc1.[Cl-] ? Its pKa was 9.9

###

Target sequence: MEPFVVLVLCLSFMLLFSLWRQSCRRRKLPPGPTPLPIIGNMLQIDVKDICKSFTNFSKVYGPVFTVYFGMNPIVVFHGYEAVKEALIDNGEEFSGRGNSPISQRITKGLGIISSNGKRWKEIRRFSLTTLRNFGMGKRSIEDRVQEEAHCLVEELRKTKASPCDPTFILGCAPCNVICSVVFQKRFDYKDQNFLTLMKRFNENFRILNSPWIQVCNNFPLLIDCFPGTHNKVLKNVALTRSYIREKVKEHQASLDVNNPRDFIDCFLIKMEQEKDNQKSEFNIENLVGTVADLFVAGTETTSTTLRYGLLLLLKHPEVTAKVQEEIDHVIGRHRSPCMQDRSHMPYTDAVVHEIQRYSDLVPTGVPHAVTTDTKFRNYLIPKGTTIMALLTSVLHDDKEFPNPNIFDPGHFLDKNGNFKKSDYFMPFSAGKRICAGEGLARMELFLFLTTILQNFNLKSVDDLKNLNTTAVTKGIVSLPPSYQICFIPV
parameter: IC50

So, Cc1c(O)c(O)cc[n+]1[C@@H](CO)Cc1ccccc1.[Cl-] ? Its IC50 was > 200 µM

###

target: Cytochrome P450 2D6 (Homo sapiens)
Sequence (P10635 whole entry): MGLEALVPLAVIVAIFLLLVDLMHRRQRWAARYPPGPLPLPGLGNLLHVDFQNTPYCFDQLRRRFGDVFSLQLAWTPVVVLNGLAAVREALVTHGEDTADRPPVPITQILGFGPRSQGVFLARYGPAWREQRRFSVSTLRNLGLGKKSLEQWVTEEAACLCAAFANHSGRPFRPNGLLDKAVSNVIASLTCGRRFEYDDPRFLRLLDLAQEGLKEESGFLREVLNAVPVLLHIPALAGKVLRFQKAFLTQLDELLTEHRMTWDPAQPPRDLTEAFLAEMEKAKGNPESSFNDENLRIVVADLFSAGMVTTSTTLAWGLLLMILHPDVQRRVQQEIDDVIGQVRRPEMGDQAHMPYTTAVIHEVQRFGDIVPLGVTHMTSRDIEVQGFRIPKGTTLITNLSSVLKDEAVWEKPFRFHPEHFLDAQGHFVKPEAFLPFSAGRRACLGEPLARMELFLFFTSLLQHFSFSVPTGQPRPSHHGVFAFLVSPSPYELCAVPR
pIC50: −log10 of the molar value.
parameter: pIC50

So, Cc1c(O)c(O)cc[n+]1[C@@H](CO)Cc1ccccc1.[Cl-] ? Its pIC50 was < 3.70

###

test: Cmax in Sprague-Dawley rat at 75 umol/kg, po measured up to 1440 mins by LC/MS/MS analysis; type: ADME, organism-based; set-up: dose 75 umol/kg, route oral; details: in vivo
parameter: Cmax (ng/mL)
Give bare numbers, in ng/mL.

So, Cc1c(O)c(O)cc[n+]1[C@@H](CO)Cc1ccccc1.[Cl-] ? Its Cmax was 8670
